B1: ADAMTS4 (parent)
chain: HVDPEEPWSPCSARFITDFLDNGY

# Variants of: B1
# protocolNotes: protein stability index of a GFP-peptide fusion (GPS, HEK-293T) (PSI 1-6); higher = more stable;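 note: lentivirally expressed fusions sorted by FACS into six bins by GFP to DsRed ratio, PSI derived from sequencing read proportions per bin multiplied by bin number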
# measurementParameters: c terminus: a fixed tail appended
Kind request: treat 2 as inclusive, so protein stability index at 2 or higher is label 1, anything lower is label 0.

INSERT INTO measurements (sequencetext, classification) VALUES
  ('HVDPTEPWSPCSARFITDFLDNGY [E5T]', 'label 1'),
  ('HVDPEEPTSPCSARFITDFLDNGY [W8T]', 'label 1'),
  ('HVDPEEPWSPYSARFITDFLDNGY [C11Y]', 'label 1'),
  ('HVDPEIPWSPCSARFITDFLDNGY [E6I]', 'label 0'),
  ('HVDPEEPWSPCSARSITDFLDNGY [F15S]', 'label 0'),
  ('HVDPEEPWSPCSARFITDKLDNGY [F19K]', 'label 1'),
  ('HVDPEEPWSMCSARFITDFLDNGY [P10M]', 'label 1'),
  ('HVDPEEWWSPCSARFITDFLDNGY [P7W]', 'label 1'),
  ('HVDPEEPWRPCSARFITDFLDNGY [S9R]', 'label 0'),
  ('HVDPEEPWSRCSARFITDFLDNGY [P10R]', 'label 0'),
  ('HVDPEEPWQPCSARFITDFLDNGY [S9Q]', 'label 0'),
  ('HVDPEEPPSPCSARFITDFLDNGY [W8P]', 'label 1'),
  ('HVDPEEPWSPCSARFITPFLDNGY [D18P]', 'label 1'),
  ('WVDPEEPWSPCSARFITDFLDNGY [H1W]', 'label 0'),
  ('HVDPYEPWSPCSARFITDFLDNGY [E5Y]', 'label 1'),
  ('HVDPEHPWSPCSARFITDFLDNGY [E6H]', 'label 0'),
  ('HVDPEAPWSPCSARFITDFLDNGY [E6A]', 'label 0'),
  ('HVDPEEPWSPCSARFITDFLHNGY [D21H]', 'label 0'),
  ('HVDPEEPWSPCSARFITDFGDNGY [L20G]', 'label 1'),
  ('HVDPEEPWSPCSARFITQFLDNGY [D18Q]', 'label 0'),
  ('HVDPEEPWSVCSARFITDFLDNGY [P10V]', 'label 0'),
  ('HVDPEEPWVPCSARFITDFLDNGY [S9V]', 'label 0'),
  ('HVDPEEPWSPCSARFITDFNDNGY [L20N]', 'label 1'),
  ('HVDPEEPWSPCSARFITDFLDKGY [N22K]', 'label 0'),
  ('HVDPEEMWSPCSARFITDFLDNGY [P7M]', 'label 1'),
  ('HVDPEEPWSLCSARFITDFLDNGY [P10L]', 'label 0'),
  ('HVDPEEPWSPVSARFITDFLDNGY [C11V]', 'label 0'),
  ('HVDPEPPWSPCSARFITDFLDNGY [E6P]', 'label 1'),
  ('HVDPEEPWSPCSARFCTDFLDNGY [I16C]', 'label 0'),
  ('HVDPEEPWSPISARFITDFLDNGY [C11I]', 'label 0'),
  ('HVDPEEPWSSCSARFITDFLDNGY [P10S]', 'label 1'),
  ('HVDPEEPWSPCSARFITDFDDNGY [L20D]', 'label 1'),
  ('HVDPEYPWSPCSARFITDFLDNGY [E6Y]', 'label 1'),
  ('HVDPEEPWSPWSARFITDFLDNGY [C11W]', 'label 0'),
  ('HVDPEEPWSPCHARFITDFLDNGY [S12H]', 'label 1'),
  ('HVDPEEPWNPCSARFITDFLDNGY [S9N]', 'label 0');
